test-target: 5-hydroxytryptamine receptor 1A (Homo sapiens)
particulars: Compound concentration 10 µM; call rule not given here
Labels: active, inactive

INSERT INTO assay_data (molecule, label_value) VALUES
  ('O=C(O)C1CN(Cc2ccc(-c3nc4cc(Cc5ccccc5F)ccc4s3)c(F)c2)C1', 'inactive'),
  ('CN(C)C(=O)C(CCN1CCC(O)(c2ccc(Cl)cc2)CC1)(c1ccccc1)c1ccccc1', 'inactive'),
  ('Brc1c(NC2=NCCN2)ccc2nccnc12', 'inactive'),
  ('Cc1nn(C)c(C)c1-c1cccc2c1CC[C@H](N(C)C)C2', 'active'),
  ('CCc1cc2c(c(CC)n1)CCC(=O)N2Cc1ccc(-c2ccccc2-c2nnn[nH]2)cc1', 'inactive'),
  ('C[C@H](NC[C@H](O)CP(=O)(O)CC1CCCCC1)c1ccc(Cl)c(Cl)c1', 'inactive'),
  ('COc1ccc(C2(O)OC(=O)C(c3ccc4c(c3)OCO4)=C2Cc2cc(OC)c(OC)c(OC)c2)cc1 (stereo not drawn)', 'inactive'),
  ('O=C(O)CC/C=C\C[C@@H]1CO[C@H](c2ccccc2Cl)O[C@@H]1c1ccccc1O', 'inactive');
